The reported numbers originate from ChEMBL document CHEMBL4680101.

testTarget: Isocitrate dehydrogenase [NADP] cytoplasmic (Homo sapiens, UniProt O75874, R132H)
Sequence (O75874 2-414 R132H limits assumed): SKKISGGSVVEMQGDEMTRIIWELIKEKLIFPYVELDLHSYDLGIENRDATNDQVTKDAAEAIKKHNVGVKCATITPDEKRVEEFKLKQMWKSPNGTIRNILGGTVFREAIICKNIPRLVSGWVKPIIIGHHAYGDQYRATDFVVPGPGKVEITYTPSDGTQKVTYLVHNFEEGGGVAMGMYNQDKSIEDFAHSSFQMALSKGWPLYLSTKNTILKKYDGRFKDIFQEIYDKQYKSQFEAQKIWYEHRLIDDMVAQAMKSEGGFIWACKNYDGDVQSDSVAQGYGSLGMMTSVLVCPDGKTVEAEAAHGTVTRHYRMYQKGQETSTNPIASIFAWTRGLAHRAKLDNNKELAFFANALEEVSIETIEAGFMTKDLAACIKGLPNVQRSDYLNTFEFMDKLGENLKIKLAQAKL
assayMethodText: Inhibition of IDH1 R132H mutant (unknown origin) using alpha-ketoglutarate and NADPH incubated for 60 mins by fluorescence based assay
pIC50: −log10 of the molar value.
assayEndpoint: pIC50

I: CC(C)CCOc1nc(N2CCC(C(=O)O)CC2)ccc1C(=O)NC1C2CC3CC1CC(O)(C3)C2 (centres undefined)
II: CC(C)CCOc1nc(N2C[C@@H]3[C@H](C2)[C@H]3C(=O)O)ccc1C(=O)NCc1cccc(Cl)c1
Exercise: Please indicate which item has the smaller measured pIC50: I versus II Lab log: write the label of the selected item as the result.
Solution: II
(II: 5.19, I: 5.47)
